A compilation of pIC50 values for UniProt O60285 from the published literature.
pIC50: −log10 of the molar value.

Exam item: What value of pIC50 has been reported for the following molecule? CN1CCN(c2ccc(Nc3ncc(C(F)(F)F)c(Nc4cccc5c4C(=O)NC5)n3)c(OC(F)(F)F)c2)CC1
Marked response: 6.00 to 7.00

Exam item: What value of pIC50 has been reported for the following molecule? CC(C)(O)c1ccc2c(c1)NC(c1c(F)cccc1F)=Nc1cn[nH]c1-2
Marked response: 7.00 to 8.00

Exam item: What value of pIC50 has been reported for the following molecule? CC(C)Oc1cc(N2CCN(C)CC2)ccc1Nc1ncc(Cl)c(Nc2cccc3c2C(=O)NC3)n1
Marked response: < 6.00

Exam item: What value of pIC50 has been reported for the following molecule? Cc1nc2cc(Nc3cn(-c4c(F)cccc4Cl)nc3C(N)=O)ccc2n1C
Marked response: 6.00 to 7.00

Exam item: What value of pIC50 has been reported for the following molecule? CN1CCN(c2ncc3c(n2)N=C(c2c(F)cccc2F)Nc2c[nH]nc2-3)CC1
Marked response: 6.00 to 7.00

Exam item: What value of pIC50 has been reported for the following molecule? CC(C)N1C[C@@H]2C[C@H]1CN2c1ccc(Nc2ncc(C(F)(F)F)c(Nc3cccc4c3C(=O)NC4)n2)c(OC(F)F)c1
Marked response: 8.00 to 10.00

Exam item: What value of pIC50 has been reported for the following molecule? Cc1cc(Nc2cn(-c3c(F)cccc3F)nc2C(N)=O)nc(N)n1
Marked response: 7.00 to 8.00
